Origin of the recorded values: patent US12486253B2

Biological target: BRAF V600E (Homo sapiens, UniProt P15056, V600E)
Sequence (P15056 whole entry V600E): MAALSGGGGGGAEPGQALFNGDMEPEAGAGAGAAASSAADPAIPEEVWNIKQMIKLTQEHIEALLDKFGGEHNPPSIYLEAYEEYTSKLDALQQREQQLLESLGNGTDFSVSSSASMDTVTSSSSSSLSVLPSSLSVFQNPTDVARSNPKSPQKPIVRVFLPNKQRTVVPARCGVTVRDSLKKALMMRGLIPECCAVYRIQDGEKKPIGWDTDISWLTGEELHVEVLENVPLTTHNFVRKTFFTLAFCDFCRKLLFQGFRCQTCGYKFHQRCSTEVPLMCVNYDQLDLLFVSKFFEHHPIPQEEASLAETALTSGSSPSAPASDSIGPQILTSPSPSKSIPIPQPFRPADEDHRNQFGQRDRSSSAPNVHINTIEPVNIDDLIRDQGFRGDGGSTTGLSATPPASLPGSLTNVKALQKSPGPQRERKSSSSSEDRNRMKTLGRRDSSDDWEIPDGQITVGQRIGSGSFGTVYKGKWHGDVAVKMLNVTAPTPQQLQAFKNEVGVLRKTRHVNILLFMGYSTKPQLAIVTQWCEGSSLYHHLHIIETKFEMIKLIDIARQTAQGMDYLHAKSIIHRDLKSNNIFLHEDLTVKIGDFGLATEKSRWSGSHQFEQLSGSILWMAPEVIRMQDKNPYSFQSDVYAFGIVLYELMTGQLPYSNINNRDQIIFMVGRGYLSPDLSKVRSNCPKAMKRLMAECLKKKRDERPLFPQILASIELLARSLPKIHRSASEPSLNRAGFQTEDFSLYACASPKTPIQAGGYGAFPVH
Assay: HiBiT cellular BRAF^V600E degradation assay
Assay type: cell-based
Conditions: A375.10 cells, 24 h; residual protein remaining in the cell; read-out: HiBit 24 h Emax
experimental readout: Emax (%)

compound	observed measurement
CCN(C)S(=O)(=O)Nc1ccc(F)c(Oc2ccc3ncn(C4CCC5(CCN(C(=O)CN6CCC(c7ccc(NC8CCC(=O)NC8=O)cc7F)CC6)CC5)C4)c(=O)c3c2)c1C#N (stereo not drawn) [Example 28]	10.2
CCN(C)S(=O)(=O)Nc1ccc(F)c(Oc2ccc3ncc(N4CCC5(CCN(C(=O)CN6CCC(c7ccc(NC8CCC(=O)NC8=O)cc7F)CC6)CC5)C4)nc3c2)c1C#N (stereo not drawn) [Example 219]	13.9
CCN(C)S(=O)(=O)Nc1ccc(F)c(Oc2ccc3ncn(C4CCC5(CCN(C(=O)CN6CCC(c7ccc(NC8CCC(=O)NC8=O)cc7F)CC6)CC5)C4)c(=O)c3c2C)c1C#N (stereo not drawn) [Example 57]	11.5

[A] CCN(C)S(=O)(=O)Nc1ccc(F)c(Oc2ccc3ncn(-c4cnc(N5CCN(C(=O)CN6CCC(c7ccc(N[C@@H]8CCC(=O)NC8=O)cc7F)CC6)CC5)nc4)c(=O)c3c2COC)c1C#N [Example 135]
[B] N#Cc1c(NS(=O)(=O)N2CCC2)ccc(F)c1Oc1ccc2ncn(-c3cnc(N4CCN(C(=O)CN5CCC(c6ccc(N[C@H]7CCC(=O)NC7=O)cc6F)CC5)CC4)nc3)c(=O)c2c1 [Example 130]
Q: Compare the recorded Emax of A and B ; state which is larger. Answer by stating the label of the chosen item.
A: A
(A: 13.7%, B: 7.25%)
